The measurements presented in this section are drawn from PubChem BioAssay AID463173.

Each entry below lists one item and its recorded survival value.
tested on: DeltatarO mutant; assay: S. aureus survival, RN4220 and DeltatarO strains – OD600, teichoic acid synthesis inhibitors, primary screen (AID 463173); settings: S. aureus RN4220 wild type/DeltatarO growth, OD600, 18 h, hits give low values, screened at 18.75 µg/mL (by protocol)
About 4,300 (8.3%) of roughly 52,000 compounds were called active. What follows is part of a selection rich in actives, with near analogues and random picks from the rest.
QUANTITY: survival (%)

COMPOUND | ASSAY SYSTEM | QUANTITY | MEAS VALUE
Cc1cc(C)c2nc(N(Cc3cccnc3)C(=O)CCOc3ccccc3)sc2c1 | DeltatarO mutant | survival | 84
CCc1ccc(S(=O)(=O)Nc2cc3c(C(=O)OCc4ccccc4)c(C)oc3c3ccccc23)cc1 | DeltatarO mutant | survival | 60
COc1ccc2c(c1)CCc1c(C(=O)Nc3cnn(Cc4ccc(Cl)cc4Cl)c3)noc1-2 | DeltatarO mutant | survival | 142
Cc1oc2c(cc(NS(=O)(=O)c3ccc(Cl)cc3)c3ccccc32)c1C(=O)OCc1ccccc1 | DeltatarO mutant | survival | 52
COc1ccc(CNC(=O)CCS(=O)(=O)c2cc(Br)cc3c2N(C(C)=O)C(C)C3)cc1 (centres undefined) | DeltatarO mutant | survival | 92
Cn1c(C(C(=O)NCC2CCCO2)N(Cc2ccc(F)cc2)C(=O)Cn2nnc3ccccc32)nc2ccccc21 (centres undefined) | DeltatarO mutant | survival | 95
COc1ccc2c(c1)CCc1c(C(=O)Nc3c(C)nn(Cc4ccccc4)c3C)noc1-2 | DeltatarO mutant | survival | 118
Cc1nn(Cc2ccc(Cl)c(Cl)c2)c(C)c1NC(=O)c1noc2c1CCc1ccccc1-2 | DeltatarO mutant | survival | 46
COc1ccc2c(c1)CCc1c(C(=O)Nc3c(C)nn(Cc4ccc(Cl)c(Cl)c4)c3C)noc1-2 | DeltatarO mutant | survival | 153
Cc1oc2c(cc(NS(=O)(=O)c3ccc(F)cc3)c3ccccc32)c1C(=O)OCc1ccccc1 | DeltatarO mutant | survival | 54
O=C(Nc1cnn(Cc2ccc(Cl)cc2Cl)c1)c1noc2c1CCc1ccccc1-2 | DeltatarO mutant | survival | 47
COc1ccc(S(=O)(=O)Nc2ccc3c(c2)CCCN3S(=O)(=O)c2ccc(C)cc2)cc1F | DeltatarO mutant | survival | 74
Cc1ccc(N(C)S(=O)(=O)c2ccc(-c3coc(C)n3)cc2)cc1 | DeltatarO mutant | survival | 75
CCCOC(=O)c1c(C)oc2c1cc(NS(=O)(=O)c1ccc(OCC)cc1)c1ccccc12 | DeltatarO mutant | survival | 56
COCCOC(=O)c1c(C)oc2c1cc(NS(=O)(=O)c1ccc(Cl)c(C)c1)c1ccccc12 | DeltatarO mutant | survival | 44
COc1ccc(Cl)cc1NC(=O)c1noc2c1CCc1ccccc1-2 | DeltatarO mutant | survival | 71
CC(=O)c1c(C)oc2c1cc(NS(=O)(=O)c1ccc(Cl)c(C)c1)c1ccccc12 | DeltatarO mutant | survival | 70
Cc1oc2c(cc(NS(=O)(=O)c3ccc(C(C)C)cc3)c3ccccc32)c1C(=O)O | DeltatarO mutant | survival | 42
Cc1nn(S(=O)(=O)c2ccc(C(C)C)cc2)c(C)c1S(=O)(=O)N1CCCCC1 | DeltatarO mutant | survival | 79
